assay: Binding affinity to HIV-1 CA-SP1 cleavage site of Gag-pol protein harboring deltaV370 mutant assessed as inhibition of HIV-1 maturation; set-up: species or system Human immunodeficiency virus 1
MEASURED ATTRIBUTE: EC50 (nM)
Numbers only, in nM.

# compound C=C(C)[C@@H]1CC[C@]2(C(=O)NCCN(CC)CC(=O)O)CC[C@]3(C)[C@H](CC[C@@H]4[C@@]5(C)CC=C(c6ccc(C(=O)O)cc6)C(C)(C)[C@@H]5CC[C@]43C)[C@@H]12 ; its EC50 = 64

# compound C=C(C)[C@@H]1CC[C@]2(C(=O)NCCN3CCS(=O)(=O)CC3)CC[C@]3(C)[C@H](CC[C@@H]4[C@@]5(C)CC=C(c6ccc(C(=O)O)cc6)C(C)(C)[C@@H]5CC[C@]43C)[C@@H]12 ; its EC50 = 60

# compound C=C(C)[C@@H]1CC[C@]2(C(=O)NCCNC(C)=O)CC[C@]3(C)[C@H](CC[C@@H]4[C@@]5(C)CC=C(c6ccc(C(=O)O)cc6)C(C)(C)[C@@H]5CC[C@]43C)[C@@H]12 ; its EC50 = 361

For every item below, please supply its EC50.
1. C=C(C)[C@@H]1CC[C@]2(C(=O)NCCC(C)C)CC[C@]3(C)[C@H](CC[C@@H]4[C@@]5(C)CC=C(c6ccc(C(=O)O)cc6)C(C)(C)[C@@H]5CC[C@]43C)[C@@H]12
2. C=C(C)[C@@H]1CC[C@]2(CNCCN3CCS(=O)(=O)CC3)CC[C@]3(C)[C@H](CC[C@@H]4[C@@]5(C)CC=C(c6ccc(C(=O)O)cc6)C(C)(C)[C@@H]5CC[C@]43C)[C@@H]12
3. C=C(C)[C@@H]1CC[C@]2(NCCN3CCS(=O)(=O)CC3)CC[C@]3(C)[C@H](CC[C@@H]4[C@@]5(C)CC=C(c6ccc(C(=O)O)c(F)c6)C(C)(C)[C@@H]5CC[C@]43C)[C@@H]12
4. C=C(C)[C@@H]1CC[C@]2(CN(C)CCCN3CCS(=O)(=O)CC3)CC[C@]3(C)[C@H](CC[C@@H]4[C@@]5(C)CC=C(c6ccc(C(=O)O)cc6)C(C)(C)[C@@H]5CC[C@]43C)[C@@H]12
5. C=C(C)[C@@H]1CC[C@]2(NCCN3CCS(=O)(=O)CC3)CC[C@]3(C)[C@H](CC[C@@H]4[C@@]5(C)CC=C(c6ccc(C(=O)O)cc6)C(C)(C)[C@@H]5CC[C@]43C)[C@@H]12 [BMS-955176]

1. 1600
2. 6
3. 10
4. 26
5. 13

For every item below, please supply its EC50.
1. C=C(C)[C@@H]1CC[C@]2(CNCCN(C)C)CC[C@]3(C)[C@H](CC[C@@H]4[C@@]5(C)CC=C(c6ccc(C(=O)O)cc6)C(C)(C)[C@@H]5CC[C@]43C)[C@@H]12
2. C=C(C)[C@@H]1CC[C@]2(C(=O)NCCN(C)C)CC[C@]3(C)[C@H](CC[C@@H]4[C@@]5(C)CC=C(c6ccc(C(=O)O)cc6)C(C)(C)[C@@H]5CC[C@]43C)[C@@H]12

1. 21
2. 31

###

test: Clearance in dog; type: ADME, Canis lupus familiaris; conditions: in vivo
MEASURED ATTRIBUTE: clearance
# do not omit the unit; it follows the number

# compound C=C(C)[C@@H]1CC[C@]2(NCCN3CCS(=O)(=O)CC3)CC[C@]3(C)[C@H](CC[C@@H]4[C@@]5(C)CC=C(c6ccc(C(=O)O)cc6)C(C)(C)[C@@H]5CC[C@]43C)[C@@H]12 ; its clearance = 0.13 mL/min/kg
